Origin of measurements: patent US10138226B2

# target.or.system: IDH1 R132H enzyme (Homo sapiens (Human), UniProt O75874, R132H)
# Sequence (O75874 whole entry R132H): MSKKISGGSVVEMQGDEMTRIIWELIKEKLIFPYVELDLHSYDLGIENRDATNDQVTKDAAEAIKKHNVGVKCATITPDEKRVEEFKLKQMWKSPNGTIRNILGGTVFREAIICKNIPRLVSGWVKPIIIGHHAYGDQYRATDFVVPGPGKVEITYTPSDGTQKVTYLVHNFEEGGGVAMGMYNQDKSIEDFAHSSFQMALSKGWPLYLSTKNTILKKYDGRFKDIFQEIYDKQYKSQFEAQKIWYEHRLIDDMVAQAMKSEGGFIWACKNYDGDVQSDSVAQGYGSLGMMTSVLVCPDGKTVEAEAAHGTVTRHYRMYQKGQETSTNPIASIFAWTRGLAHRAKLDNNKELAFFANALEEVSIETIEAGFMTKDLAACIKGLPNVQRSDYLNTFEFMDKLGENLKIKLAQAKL
# experiment.description: Mutant IDH1 R132H biochemical assay; also: 1.5 nM enzyme
# condition.label: NADPH consumption, luminescent readout, 250 μM α-KG, 1 μM NADPH, 32° C., 30 minutes, test range 0.002-10 μM
value.type: pIC50
pIC50 here is simply -log10 of the concentration when that concentration is written in mol/L.

Example compounds with recorded pIC50:
Task item: Can you share its pIC50? I mean this compound: C[C@@H]1C[C@H](n2c(Nc3ccc(OC(F)(F)F)cc3)nc3ccc(C(=O)N(C)CC(=O)O)cc32)CC(C)(C)C1 (racemic)
Reply: 5.12

Task item: For COC(=O)CNC(=O)c1ccc2nc(Nc3ccc(OC(F)(F)F)cc3)n([C@H]3C[C@@H](C)CC(C)(C)C3)c2c1 (racemic) , what is its reported pIC50?
Reply: 5.18

Attention now turns to another entry.
Task item: # input compound: CNC(=O)c1ccc2nc(Nc3ccc(OC(F)(F)F)cc3)n([C@H]3C[C@@H](C)CC(C)(C)C3)c2c1 (single isomer, unassigned; enantiomer b) [Example 2-8-2] ; wanted: its pIC50
Reply: 5.92
